Molecular target: T1, bacterially produced MPP2 PDZ-SH3-GK (MPP2 PSG module) (mouse)
T1 construct: source: E. coli Rosetta, purified (Ni-NTA, Superdex 75)
T1 sequence (Q9WV34 whole entry, looked up): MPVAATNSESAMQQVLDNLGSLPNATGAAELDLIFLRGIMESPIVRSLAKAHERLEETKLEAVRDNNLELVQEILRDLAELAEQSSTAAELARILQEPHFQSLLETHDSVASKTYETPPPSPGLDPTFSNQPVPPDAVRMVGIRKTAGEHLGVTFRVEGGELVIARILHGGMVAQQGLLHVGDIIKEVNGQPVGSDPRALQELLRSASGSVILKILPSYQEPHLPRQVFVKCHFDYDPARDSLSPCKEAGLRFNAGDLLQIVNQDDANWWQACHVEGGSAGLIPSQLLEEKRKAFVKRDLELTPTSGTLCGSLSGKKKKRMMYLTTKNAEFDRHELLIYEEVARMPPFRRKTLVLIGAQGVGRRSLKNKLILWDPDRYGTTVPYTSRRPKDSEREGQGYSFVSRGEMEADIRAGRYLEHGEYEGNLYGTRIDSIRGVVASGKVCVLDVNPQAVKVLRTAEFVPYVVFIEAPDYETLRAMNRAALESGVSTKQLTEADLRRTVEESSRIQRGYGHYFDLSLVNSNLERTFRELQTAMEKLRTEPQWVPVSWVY
Experiment: ITC; ITC200 at 25 °C; 200 mM NaCl, 20 mM Tris-HCl pH 7.5, 1 mM DTT; 350 μM mCherry-tagged peptide titrated into 55 μM MPP2 PSG module in the cell; single-site binding model
Conditions: both partners purified
readout.label: Kd (µM)
Numbers only, in µM.

**Query** Field request: Kd | item: GGGGSGGGGSGGGGSNSEEKKEYFI (domain or fragment) [bacterially produced mCherry-tagged SynCAM1 peptide (C-terminus)]
**Result** 3.1

Values compiled from paper PMC5069480.
